assay: Bioavailability and pharmacokinetic study of crystalline Forms A and B of metaxalone, oral suspension, plasma by HPLC; assay type: in vivo, female wistar rat; settings: female, Wistar, rat, plasma, po, 150 mg/kg, Mean of N=6 rats, female wistar rat, oral 150 mg/kg; read-out: Tmax Mean
MEASUREMENT_LABEL: Tmax
Please answer in the form of a number followed by its unit of measurement.

Name the recorded Tmax for Cc1cc(C)cc(OCC2CNC(=O)O2)c1 (single isomer, unassigned) [Form A] .
1.5 h

----------
test: Bioavailability and pharmacokinetic study of crystalline Forms A and B of metaxalone, oral suspension, plasma by HPLC; format: in vivo, female wistar rat; settings: female, Wistar, rat, plasma, po, 150 mg/kg, female wistar rats, fasting, oral 150 mg/kg, Mean ± SD
MEASUREMENT_LABEL: MRT last (h)
Report as a plain number; the unit h is understood.

Name the recorded MRT last for Cc1cc(C)cc(OCC2CNC(=O)O2)c1 (single isomer, unassigned) [Form A] .
5.49
